PROPERTY_LABEL: melting point

# count of solved cases: 10
CCCCC(CC)COc1ccc(CC(NC(=O)C2CCC(C)(C(=O)O)C2(C)C)C(=O)O)cc1 (stereo not shown) [Example 14] ... 94 to 97 °C
COC(=O)C(Cc1cn(Cc2ccc(Cl)c(Cl)c2)cn1)NC(=O)[C@H]1CC[C@@](C)(C(=O)O)C1(C)C (stereo in doubt) [Example 3] ... 174 to 175 °C (dec.)
CC1(C)[C@@H](C(=O)N[C@@H](Cc2ccc(OCc3c(Cl)cccc3Cl)cc2)C(=O)O)CC[C@@]1(C)C(N)=O [Example 155] ... 102 to 104 °C
CC1(C)[C@@H](C(=O)N[C@@H](Cc2cccc(OCc3ccccc3)c2)C(=O)O)CC[C@@]1(C)C(=O)O [Example 46] ... 88 to 90 °C
CC1(C)[C@@H](C(=O)N[C@@H](Cc2ccc(OCC3CCCCC3)cc2)C(=O)O)CC[C@@]1(C)C(=O)O [Example 13] ... 102 to 105 °C
CC1(C)[C@@H](C(=O)N[C@@H](Cc2ccc(NC(=O)c3ccccc3Br)cc2)C(=O)O)CC[C@@]1(C)C(=O)O [Example 112] ... 156 to 158 °C
CC1(C)[C@@H](C(=O)N[C@@H](Cc2ccc(NC(=O)c3cc(Br)ccc3Br)cc2)C(=O)O)CC[C@@]1(C)C(=O)O [Example 97] ... 170 to 173 °C
CC1(C)[C@H](C(=O)O)CC[C@]1(C)C(=O)N[C@@H](Cc1ccc(NC(=O)c2c(Cl)cccc2Cl)cc1)C(=O)O [Example 244] ... 152 to 157 °C
CC1(C)[C@@H](C(=O)N[C@@H](Cc2ccc(NC(=O)c3c(Cl)cccc3Cl)cc2)C(=O)O)CC[C@@]1(C)C(=O)NCC(N)=O [Example 180] ... 203 to 205 °C
Cc1cccc(Cl)c1C(=O)Nc1ccc(C[C@H](NC(=O)[C@H]2CC[C@@](C)(C(=O)O)C2(C)C)C(=O)O)cc1 [Example 106] ... 165 to 168 °C

State the recorded melting point for this entry: CC1(C)[C@@H](C(=O)N[C@@H](Cc2ccc(O)c(NC(=O)c3c(Cl)cccc3Cl)c2)C(=O)O)CC[C@@]1(C)C(=O)O [Example 61]
168 to 171 °C

Same again, this time with CC1(C)[C@@H](C(=O)N[C@@H](Cc2ccc(NC(=O)c3ccc4ccccc4c3)cc2)C(=O)O)CC[C@@]1(C)C(=O)O [Example 124]
141 to 143 °C

Further, for Cc1ccccc1C(=O)Nc1ccc(C[C@H](NC(=O)[C@H]2CC[C@@](C)(C(=O)O)C2(C)C)C(=O)O)cc1 [Example 142] ?
152 to 155 °C
